ASSAY DETAILS: Moisture sorption-desorption isothermal measurement
Assay type: physicochemical
EXPERIMENTAL SETUP: ratio at 0% Target % P/P0 after desorption, 25° C.
Structures can show the parent of a compound that is named as a salt.
QUANTITY MEASURED: Ratio of increased mass in moisture desorption isothermal measurement

CC#C/C(=N\OC[C@H]1COCCN1)c1ccc2ncnc(Nc3ccc(OCc4cccc(F)c4)c(Cl)c3)c2c1 [Monohydrochloride crystal Form II] :: about 0.05%
CC#C/C(=N\OC[C@H]1COCCN1)c1ccc2ncnc(Nc3ccc(OCc4cccc(F)c4)c(Cl)c3)c2c1 [Monohydrochloride crystal Form V] :: about 0.05%
